Reported z-score by item:
experimental_protocol: CREB reporter modulators under forskolin, primary screen, cell-based, PC12, CRE-LacZ reporter, forskolin-stimulated (AID 1146);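 further: PC12 cells with 6xCRE LacZ reporter stimulated by forskolin 10 µM; beta-galactosidase reporter signal reflecting CREB driven transcription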
experimental_parameters: luminescence, 4.5 h, higher = more signal, called active from +8 up or from −8 down
The source made the active and inactive calls.
endpoint: z-score

• CN(C)CCCC[C@@H]1NC(=O)[C@H]2C[C@@H](C(=O)NCCCCCNC(=O)CS)[C@@H](c3cccc(OCCO)c3)N2C1=O = 0.547 (inactive)
• CC(=O)N1Cc2ccccc2C[C@@]2(COC(c3ccc(OCCCO)cc3)=N2)C1=O = -1.42 (inactive)
• Cc1ccc(S[C@]2(C(=O)NCCN3CCOCC3)CC(=O)N(Cc3ccccc3Cl)[C@@H]2c2ccc(CO)cc2)cc1 = 1.1 (inactive)
• CCOC(=O)C[C@H]1[C@H](OC(=O)c2cc3ccccc3oc2=O)[C@@H](NC(=O)C2CCCCC2)c2cc(OCCCO)ccc2N1C(=O)c1ccccc1 = -1.65 (inactive)
• CCCCCC1=C2CNC(CCC)(C(=O)OC)C=C2C(C)C1=O (stereo not given) = 0.974 (inactive)
• OC([C@@H]1CC(c2ccccc2)=NO1)[C@H]1CC(c2ccccc2)=NO1 (stereo not given in full) = -0.487 (inactive)
• NC(=O)[C@@H]1[C@H]2C(=O)O[C@H](c3ccccc3)[C@H](c3ccccc3)N2[C@H](c2ccc(O)cc2)[C@@]12C(=O)Nc1ccc(C#CC3(O)CCCCCC3)cc12 = -0.301 (inactive)
• CC(=O)NCCCC[C@@H]1NC(=O)[C@@H]2C[C@H](C(=O)NCCCCN(C)C)[C@H](c3cccc(OCCO)c3)N2C1=O = -0.874 (inactive)
• Cc1ccc(S[C@]2(C(=O)NC(C)C)CC(=O)N(Cc3ccccc3Cl)[C@@H]2c2ccc(CO)cc2I)cc1 = 2.53 (inactive)
• [N-]=[N+]=NCc1ccccc1C[C@]1(C(=O)N2CCOCC2)N=C(c2ccc(OCCCO)cc2)O[C@H]1c1ccccc1N=[N+]=[N-] = -1.86 (inactive)
• CCOC(=O)[C@H]1CC=C2CC1C(=O)N1CCC[C@@H]1[C@@H]2O[Si](C)(C)C(C)(C)C (stereo not given in full) = -0.661 (inactive)
• CC(C)(C)C(=O)N[C@@H](c1ccc(Cl)cc1)[C@]1(C)C[C@H]1C1CCCCC1 = 0.456 (inactive)
• COC(=O)[C@@]1(Cc2ccc(F)cc2)[C@H]2c3cc(C(=O)N(C)C)n(CC4CC4)c3C[C@H]2CN1C(=O)c1ccccc1 = 0.581 (inactive)
• CCCC[C@H]1OB(O)C[C@H]2C1=C(COc1ccccc1)C[C@H]1C(=O)N(C)C(=O)[C@H]12 = 0.899 (inactive)
• O=C(NCc1ccc(F)cc1)[C@H]1C[C@H]2C(=O)N[C@@H](Cc3ccccc3)C(=O)N2[C@H]1c1ccc(O)cc1 = -0.887 (inactive)
• COc1ccc(C#Cc2ccc3c(c2)[C@]2(C(=O)N3)[C@H](c3ccccc3OCCO)N3[C@H](c4ccccc4)[C@H](c4ccccc4)OC(=O)[C@H]3[C@@H]2C(=O)O)cc1 = 4.03 (inactive)
• C=CCOC(=O)[C@@H]1[C@H]2C(=O)O[C@H](c3ccccc3)[C@H](c3ccccc3)N2[C@H](c2ccc(OCCOC(=O)[C@@H]3C[C@@H]4C(=O)N5CCC[C@H]5C(=O)N4[C@@H]3c3ccc(O)cc3)cc2)[C@@]12C(=O)Nc1ccc(I)cc12 = -1.75 (inactive)
• C=C(CCCC)C(=O)CC[C@@H](OC(=O)c1cccnc1)c1ccc(CO)o1 = 0.783 (inactive)
• COC(=O)[C@@]1(Cc2ccc(F)cc2)[C@H]2c3cc(C(=O)N(C)C)n(Cc4nc5ccccc5[nH]4)c3C[C@H]2CN1C(=O)c1ccccc1 = 0.678 (inactive)
• COc1cc(CO)cc(I)c1O[C@H]1C=C(C(=O)NCCO)C[C@@H](N(CCN2CCOCC2)C(=O)C2CCOC2)[C@@H]1O (stereo not given in full) = -1.45 (inactive)
• CN(C)CCCNC(=O)[C@@]1(C)c2ccccc2C(=O)N(Cc2cc(F)cc(C(F)(F)F)c2)[C@H]1c1ccc(CO)cc1 = 0.506 (inactive)
• COc1ccc(C(O)C2C=CC3C(=O)N(C)C(=O)C3N2N2CCCCC2)c2ccccc12 (stereo not given) = 0.426 (inactive)
• NCCCCCNC(=O)[C@@H]1C[C@@H]2C(=O)N[C@@H](Cc3ccccc3)C(=O)N2[C@@H]1c1cccc(OCCO)c1 = 0.201 (inactive)
• C=C(C)C1C(=C)CN([C@H](CO)c2ccccc2)C1=O (stereo not given in full) = 0.176 (inactive)
• [N-]=[N+]=Nc1ccccc1[C@H]1OC(c2ccc(OCCCO)cc2)=N[C@@]1(Cc1ccccc1)C(=O)O = -1.38 (inactive)
• COC(=O)[C@@]1(Cc2ccc(OC)cc2)[C@H]2c3cc(C(=O)N4CCCC4)n(Cc4ccccc4)c3C[C@H]2CN1C(=O)c1ccccc1 = -0.754 (inactive)
• CC1CC/C=C\[C@H]2OC34C=CCN(c5ccc(Cl)cc5)C(=O)[C@H]3N(CCO)C(=O)[C@]4(C)C2C(=O)O1 (stereo not given in full) = -0.217 (inactive)
• Cc1ccc(S[C@]2(C(=O)NC3CC3)CC(=O)N(C3Cc4ccccc4C3)[C@@H]2c2ccc(CO)cc2)cc1 = -0.906 (inactive)
• CC(C)N1C(=O)[C@@]2(Cc3ccccc31)c1ccccc1C(=O)N(C1CCCCC1)[C@H]2c1ccc(CO)cc1 = 0.815 (inactive)
• COc1ccc([Si](C)(C)[C@H]2[C@H](CCO)O[C@@]3(C(=O)N(C)c4c(Br)cc(C)cc43)[C@@H]2C)cc1 = -3.2 (inactive)

----------
experimental_protocol: Plasmodium falciparum growth inhibition, primary screen, strain 3D7, DAPI fluorescence, 100 nL (AID 1184);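 further: parasites grown inside human red blood cells in medium with human serum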
experimental_parameters: P. falciparum 3D7 growth, 3 d, higher = more signal
We use -0.8 as the dividing line for z-score: on or above the line is Condition met, below is Condition not met.

* COc1ccc(C(=O)Nc2cccc(CN3C(=O)[C@]4(O[C@H](CCO)[C@@H]([Si](C)(C)c5ccc(OC)cc5)[C@@H]4C)c4ccccc43)c2)cc1 | Condition not met
* CC[C@@H]1C=C(C(=O)O)[C@H](c2ccco2)N1S(=O)(=O)c1ccc(C)cc1 | Condition met
* CN1C(=O)C2C=CC(C(O)C3=C[C@H]4C[C@@H](C3)C4(C)C)N(Nc3ccccc3)C2C1=O (some centres not stated) | Condition met
* COCCOC(=O)N1C(=O)[C@@]2(c3cc(C#CCCO)ccc31)[C@H](C(=O)N1CCN(c3ncccn3)CC1)[C@H]1C(=O)O[C@H](c3ccccc3)[C@H](c3ccccc3)N1[C@@H]2c1ccccc1OCCO | Condition not met
* COC(=O)C(CC#Cc1ccc2c(c1)[C@]1(C(=O)N2)[C@H](C(=O)O)[C@H]2C(=O)O[C@H](c3ccccc3)[C@H](c3ccccc3)N2[C@@H]1c1ccc(O)cc1)C(=O)OC | Condition met
* CCOC(=O)C[C@H]1[C@H](OC(=O)Cc2ccc3c(c2)OCO3)[C@@H](NC(=O)c2ccc(-c3ccccc3)cc2)c2cc(OCCCO)ccc2N1C(=O)Cc1ccc(OC)cc1 | Condition not met
* COCCCNC(=O)[C@@]1(Cc2ccccc2N=[N+]=[N-])N=C(c2ccc(OCCCO)cc2)O[C@H]1c1ccccc1N=[N+]=[N-] | Condition not met
* COCCOC(=O)N1C(=O)[C@@]2(c3cc(C#CCCO)ccc31)[C@H](C(=O)N1CCc3cc(OC)c(OC)cc3C1)[C@H]1C(=O)O[C@H](c3ccccc3)[C@H](c3ccccc3)N1[C@@H]2c1ccc(O)cc1 | Condition met
* C=CCNC(=O)[C@@H]1[C@H]2C(=O)O[C@H](c3ccccc3)[C@H](c3ccccc3)N2[C@H](c2ccc(OCCO)cc2)[C@@]12C(=O)Nc1ccc(C#CCCO)cc12 | Condition not met
* C=CCNC(=O)[C@@H]1[C@H]2C(=O)O[C@H](c3ccccc3)[C@H](c3ccccc3)N2[C@H](c2ccccc2OCCO)[C@@]12C(=O)N(C(=O)OCCOC)c1ccc(C#CCNC(N)=O)cc12 | Condition met
* COc1ccc(NN2C(C(O)c3ccc([N+](=O)[O-])cc3)C=CC3C(=O)N(C4CCCCC4)C(=O)C32)cc1 (configuration not stated) | Condition met
* CCOC(=O)[C@H]1C/C=C/C[C@H](C(=O)OCC)C(=O)O[C@H]2[C@@H](OC)O[C@H](CO)[C@@H](OC(=O)Nc3ccc(C#N)cc3)[C@@H]2OC1=O | Condition not met

----------
experimental_protocol: MM1S cell viability effects, profiling panel, calcein-AM fluorescence, 48 h, basal (AID 1165);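 further: viability of MM1S multiple myeloma cells under basal unstimulated conditions; test concentration not given here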
experimental_parameters: higher = more signal
Reported values of z-score for individual entries
endpoint: z-score

- N#Cc1ccc(NN2C(C(O)c3c(F)cccc3Cl)C=CC3C(=O)N(c4ccccc4)C(=O)C32)cc1 (configuration not stated): -0.0928
- C=CC[C@]1(C(=O)NCCCOC)N=C(c2ccc(OCCCO)cc2)O[C@H]1c1ccccc1N=[N+]=[N-]: -1.78
- CC(C)C[C@@H]1NC(=O)[C@H]2C[C@@H](C(=O)NCCCCCCN(C)C)[C@@H](c3ccc(O)cc3)N2C1=O: 0.235
- C=CCOC(=O)[C@H]1[C@@H]2C(=O)O[C@@H](c3ccccc3)[C@@H](c3ccccc3)N2[C@@H](c2ccc(OCCOC(=O)[C@@H]3C[C@@H]4C(=O)N5CCC[C@H]5C(=O)N4[C@@H]3c3cccc(OCCO)c3)cc2)[C@]12C(=O)Nc1ccccc12: -0.423
- CC(C)(C)OC(=O)CC[C@@]12N=C(c3ccc(OCCCO)cc3)O[C@@H]1c1ccccc1N(CCS(=O)(=O)c1ccccc1)C2=O: -1.6
- CC(C)C(CO)N1C(=O)[C@@H]2[C@H]3C(=O)OCC=C[C@H]3OC23C=CCN(C(C)C)C(=O)[C@@H]13 (some centres not stated): -0.181
- O=C1[C@H]2C=C(Br)[C@H](C[C@@H]2OCCCCO)[C@@]12CO2: -0.723
